Target: T1, S15-extra cellular domain (ECD) monomer (human, UniProt Q6ZMC9 20-263)
T1 construct: also called S15 monomer protein
T1 sequence: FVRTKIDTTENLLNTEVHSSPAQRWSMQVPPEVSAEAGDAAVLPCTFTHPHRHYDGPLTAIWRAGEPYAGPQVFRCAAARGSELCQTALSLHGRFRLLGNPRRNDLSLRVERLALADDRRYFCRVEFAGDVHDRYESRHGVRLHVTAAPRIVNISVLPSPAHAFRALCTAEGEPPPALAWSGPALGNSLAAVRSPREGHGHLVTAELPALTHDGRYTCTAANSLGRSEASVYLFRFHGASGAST
Test: BLI (Octet RED96), mAb on anti-human Fc sensors, S15-ECD monomer in solution, global fit
endpoint: koff (s⁻¹)
Number only, in s⁻¹; omit the unit.

binder	koff / s⁻¹
1C3 (antibody, V domains shown, Mouse anti-human Siglec-15 mAb) VH: QVQLKQSGAELVKPGASVKISCKASGYIFTDYYVNWVKQRPGQGLEWIGKIGPGSVSIYYNEKFKGKATLTADKSSSTAYMQLSSLTSEDSAVYFCASYYYGFAYWGQGTLVTVSA VL: DIVMTQAAPSVPVTPGESVSISCRSSKSLLHSNGNTYLYWFLQRPGQSPQLLIYRMSNLASGVPDRFGGSGSGTAFTLRISRVEAEDVGFYYCMQHLEYPYTFGGGTRLEIK	0.000174

Problem: Suppose we examine the binder 1H3 (antibody, V domains shown, Mouse anti-human Siglec-15 mAb) VH: QVQLKESGPGLVAPSQSLSITCTVSGFSLSNYGVHWVRQPPGKGLEWLVLIWSDGSTTYNSALKSRLSISKDNSKSQVFLKMNSLQTGDTAMYYCARHPYDDYSGYYYTMDYWGQGTSVTVSS VL: DIQMTQASSSLSVSLGGRVTITCKASDHINNWLAWYQQKPGNAPRLLISGATSLETGVPSRFSGSGSGKDYTLSITSLQTEDVATYYCQQYWSSPLTFGAGTKLELK ; what koff value has been reported?
Solution: 3.9e-05

Entry source: patent US20190202912A1
